B1: YPEL3 (parent)
chain: SKPKTFQAYLDDCHRRYSCAHCRA

Variants of: B1
Assay: protein stability index of a GFP-peptide fusion (GPS, HEK-293T) (PSI 1-6); higher = more stable;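 note: lentivirally expressed fusions sorted by FACS into six bins by GFP to DsRed ratio, PSI derived from sequencing read proportions per bin multiplied by bin number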
Conditions: c terminus: a fixed tail appended
Can you tell me protein stability index for the items I'm about to list?
Please reply with the value in numeric form only.

Qu. Annotate the variant K2Q with its measured protein stability index.
Ans. 2.31

Qu. Quick one: give measured protein stability index for H21W
Ans. 1.65

Qu. # return recorded protein stability index for input R23D
Ans. 2.18

Qu. In one line, give reported protein stability index of the entry Y9I .
Ans. 2

Qu. Give a short answer stating reported protein stability index for C13A .
Ans. 1.8

Qu. Look up and report measured protein stability index for this entry: R15Q
Ans. 1.65

Qu. Answer with the recorded protein stability index for the variant listed here: K2M
Ans. 1.7

Qu. // Input: C13W . Output its protein stability index only.
Ans. 1.71

Qu. Determine its reported protein stability index: A24F
Ans. 2.59

Qu. Complete the entry with protein stability index for R23W
Ans. 2.08

Qu. Return value of protein stability index for input A8C , no commentary.
Ans. 2.32

Qu. Quick one: give measured protein stability index for D11V
Ans. 1.75

Qu. Identify protein stability index associated with the variant Y17R
Ans. 2.79

Qu. Hello, please tell me recorded protein stability index for this one: S18N
Ans. 2.06

Qu. Using the record for A24Q , state its measured protein stability index.
Ans. 2.59

Qu. Indicate its recorded protein stability index; the variant in question is Y17N
Ans. 1.8

Qu. Give a short answer stating reported protein stability index for Y9F .
Ans. 2.67

Qu. Using known records, supply protein stability index for R16S
Ans. 1.59

Qu. Using known records, supply protein stability index for Y17V
Ans. 1.39

Qu. Name the recorded protein stability index of the item Y9N in your answer.
Ans. 2.17

Qu. Give the reported value of protein stability index for this record: R15Y
Ans. 1.56

Qu. Report protein stability index for D12Q
Ans. 2.01

Qu. Please report the measured protein stability index for A24W
Ans. 2.39

Qu. Quote protein stability index reported for Y17C please.
Ans. 3.26

Qu. Quickly give me recorded protein stability index for Q7G
Ans. 2.22

Qu. Return value of protein stability index for input D11Q , no commentary.
Ans. 2.21

Qu. Given the variant R23M , write its reported protein stability index.
Ans. 2

Qu. For the variant Y17F , report protein stability index.
Ans. 3.01

Qu. Specify protein stability index for Q7M and stop.
Ans. 1.8

Qu. Using known records, supply protein stability index for Y17I
Ans. 2.13

Qu. Give protein stability index for P3S
Ans. 1.82

Qu. Recall and state the measured protein stability index for P3Q .
Ans. 1.97

Qu. Supply recorded protein stability index for R16P here.
Ans. 1.94

Qu. Answer with the recorded protein stability index for the variant listed here: R23S
Ans. 3.52

Qu. Identify measured protein stability index associated with K4W
Ans. 1.59

Qu. Return reported protein stability index. Input variant: K2R
Ans. 1.89

Qu. Using the record for Q7S , state its measured protein stability index.
Ans. 1.89

Qu. For A20F , write its protein stability index.
Ans. 2.22

Qu. Input F6Q , output reported protein stability index.
Ans. 3.21

Qu. For the variant C19A , give its measured protein stability index value.
Ans. 2.51

Qu. Input D11S , output reported protein stability index.
Ans. 1.9

Qu. Give me measured protein stability index, please, for this variant: R15P
Ans. 1.82

Qu. Find the measured protein stability index of Q7V and report it.
Ans. 2.18

Qu. Specify protein stability index for A20V and stop.
Ans. 2.02

Qu. Complete the entry with protein stability index for Y17A
Ans. 1.99

Qu. Look up and state reported protein stability index for D12E
Ans. 2.36

Qu. Provide one value: measured protein stability index of C13D
Ans. 1.99

Qu. Read the entry C19W and write its reported protein stability index.
Ans. 1.66

Qu. Find the measured protein stability index of H21L and report it.
Ans. 1.74

Qu. Supply protein stability index value. Item: K2V
Ans. 2.22

Qu. Name the recorded protein stability index of the variant listed here: D12S
Ans. 2

Qu. Indicate the recorded protein stability index value for this variant: A24R
Ans. 1.71

Qu. Please report the measured protein stability index for K2G
Ans. 2.34

Qu. Let me know recorded protein stability index for K2H , thanks.
Ans. 2

Qu. Give the value of protein stability index reported for the following: C13F
Ans. 2.1

Qu. Quickly give me recorded protein stability index for C13Q
Ans. 2.48

Qu. Recall and state the measured protein stability index for A20N .
Ans. 2.92

Qu. Please report protein stability index for the following variant: T5E
Ans. 3.37

Qu. Determine from records and report protein stability index for H21P
Ans. 1.9

Qu. Find the measured protein stability index of A8T and report it.
Ans. 2.1

Qu. Give the value of protein stability index reported for the following: C19Q
Ans. 2.53

Qu. Quick one: give measured protein stability index for S18R
Ans. 2.56

Qu. Please list protein stability index recorded for the variant L10T
Ans. 2.14

Qu. Provide protein stability index value for the following variant: A24P
Ans. 2.24

Qu. Using the record for K4C , state its measured protein stability index.
Ans. 1.86

Qu. Complete the entry with protein stability index for S1E
Ans. 1.52

Qu. // Input: T5L . Output its protein stability index only.
Ans. 2.37

Qu. Supply protein stability index value. Item: A8I
Ans. 1.81

Qu. Consider the variant Y17D and give its recorded protein stability index.
Ans. 2.44

Qu. Determine its reported protein stability index: F6S
Ans. 3.3

All figures here come from the supplement of paper PMC10567573.
